Provide the recorded Kd for the entries that follow.
# tested_on: T1, Hla
# T1 chain: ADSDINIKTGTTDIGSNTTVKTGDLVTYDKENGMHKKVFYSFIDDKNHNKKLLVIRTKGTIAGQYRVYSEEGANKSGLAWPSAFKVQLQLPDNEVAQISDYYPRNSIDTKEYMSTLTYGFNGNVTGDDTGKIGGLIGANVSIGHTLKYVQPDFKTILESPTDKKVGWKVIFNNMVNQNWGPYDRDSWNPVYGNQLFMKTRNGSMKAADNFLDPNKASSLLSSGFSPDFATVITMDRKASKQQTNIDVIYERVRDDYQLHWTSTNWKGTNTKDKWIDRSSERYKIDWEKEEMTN

Recorded results for 2 binders are shown here.
AB-28-11 (antibody, V domains shown) VH: QVQLQESGPGLVKPSETLSLTCAVSGYSISSGMGWDWIRQPPGKGLEWIGSIDQRGSTYYNPSLEGRVTISVDTSKNQFSLKLSSVTAADTAVYYCARDAGHGVDMDVWGKGTTVTVSS VL: DIQMTQSPSSVSASVGDRVTITCRASQGISRWLAWYQQKPGKAPKLLIYAASSLQSGVPSRFSGSGSGTDFTLTISSLQPEDFATYYCQQGYVFPLTFGGGTKVEIK ... < 2 pM
AB-28-6 (antibody, V domains shown) VH: QVQLQESGPGLVRPSETLSLTCAVSGYSISSGMGWGWIRQPPGKGLEWIGSIDQRGSTYYNPSLKSRVTISVDTSKNQFSLKLSSVTAADTAVYYCARDAGHAVDMDVWGKGTTVTVSS VL: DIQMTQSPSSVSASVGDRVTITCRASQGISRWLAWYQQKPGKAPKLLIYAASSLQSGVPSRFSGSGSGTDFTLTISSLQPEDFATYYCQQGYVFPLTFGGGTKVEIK ... < 2 pM

# input for lookup
GET /values?readout=Kd&item= AB-28-13 (antibody, V domains shown) VH: QVQLQESGPGLVKPSETLSLTCAVSGYSISSGMGWDWIRQPPGKGLEWIGSIDQRGSTYYNPSLEGRATISVDTSKNQFSLKLSSVTAADTAVYYCARDAGHGVDMDVWGKGTTVTVSS VL: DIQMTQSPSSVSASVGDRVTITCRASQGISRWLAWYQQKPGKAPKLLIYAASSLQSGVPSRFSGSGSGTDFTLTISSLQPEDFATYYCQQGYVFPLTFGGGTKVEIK
< 2 pM
